# measured on: T1, shFcRn (soluble human FcRn) (human, UniProt P55899 24-297; P61769 21-119)
# T1 construct: extracellular domain; Printed only as 'soluble human FcRn'; also called hFcRn (immobilized on a chip)
# protocol details: SPR, hFcRn immobilized on chip, pH 6.0
metric name: Kd (nM)

- HL161AN variant No. 12 (LC:N25Q, HC:C32S) (antibody, V domains shown, also called HL161ANQ; #12 (HL161ANQ)) VL: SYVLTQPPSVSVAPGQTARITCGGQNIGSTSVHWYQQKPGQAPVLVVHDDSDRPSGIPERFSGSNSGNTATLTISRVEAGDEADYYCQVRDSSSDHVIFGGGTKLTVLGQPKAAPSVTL VH: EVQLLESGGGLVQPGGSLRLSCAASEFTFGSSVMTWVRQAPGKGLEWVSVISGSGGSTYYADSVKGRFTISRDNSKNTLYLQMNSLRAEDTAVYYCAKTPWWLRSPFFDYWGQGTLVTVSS: 0.18
- HL161AN variant No. 9 (LC:N25S, HC:C32Y Q82S) (antibody, human IgG1, V domains shown, Variable domains only) VL: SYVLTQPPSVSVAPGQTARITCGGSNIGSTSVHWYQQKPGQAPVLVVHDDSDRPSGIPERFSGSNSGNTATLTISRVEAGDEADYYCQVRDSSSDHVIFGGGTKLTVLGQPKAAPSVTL VH: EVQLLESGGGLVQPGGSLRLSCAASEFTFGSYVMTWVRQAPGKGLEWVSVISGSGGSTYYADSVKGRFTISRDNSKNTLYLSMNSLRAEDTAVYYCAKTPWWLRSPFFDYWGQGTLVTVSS: 0.16
- HL161AN variant No. 18 (LC:N25Q, HC:C32S Q82T) (antibody, human IgG1, V domains shown, Variable domains only) VL: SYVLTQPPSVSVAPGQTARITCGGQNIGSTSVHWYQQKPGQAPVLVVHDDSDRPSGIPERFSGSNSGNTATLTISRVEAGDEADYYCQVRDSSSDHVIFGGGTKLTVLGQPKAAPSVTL VH: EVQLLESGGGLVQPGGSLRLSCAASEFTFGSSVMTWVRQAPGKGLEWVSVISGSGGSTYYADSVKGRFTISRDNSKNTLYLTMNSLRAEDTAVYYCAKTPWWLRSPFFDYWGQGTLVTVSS: 0.25
